- Species on record: Rattus norvegicus
- PROTOCOL: Open TG-GATES - Regimen: Single
- Assay type: toxicity, organism-based, Sprague-Dawley
- Parameters: regimen Single, gender Male, age 6 weeks
- RECORDED_CONDITIONS: in vivo, po, 0 mg/kg, 3 h, tissue Blood, route gavage, dose level Control
Listing of entries alongside the reported MCHC.
Note: unit % is implicit; provide only the numeric part.

As a guide, the following entries are already answered.
1) CCN(CC)C(=S)SSC(=S)N(CC)CC :: 32.3
2) CCCCNC(=O)NS(=O)(=O)c1ccc(C)cc1 [TOLBUTAMIDE] :: 32.5
3) CC(S)C(=O)NCC(=O)O (stereo not drawn) [TIOPRONIN] :: 32.5

Q: Input O=c1ccc2ccccc2o1 [COUMARIN] , output reported MCHC.
A: 33.6
